# assay-summary: Cmax in Wistar rat at 10 mg/kg, po
# Type: ADME, organism-based
# Design: dose 10 mg/kg, route oral
# conditions-used: in vivo
property-label: Cmax (nM)
Respond with the bare value in nM.

Request: Please report Cmax for the following molecule: C[C@@H](CN1CC(C)(C)c2cc(F)ccc21)NC(=O)O[C@@H](CC1CCCCC1)C(=O)N1CCOCC1
Result: 774

Request: State, in one line, measured Cmax of C[C@@H](CN1CC(C)(C)c2cc(F)ccc21)NC(=O)[C@H](CC1CCCCC1)NC(=O)N1CCOCC1
Result: 118

Request: State, in one line, measured Cmax of C[C@@H](CN1c2ccc(F)cc2CC1(C)C)NC(=O)O[C@@H](CC1CCCCC1)C(=O)N1CCOCC1
Result: 513

---

# assay-summary: Oral bioavailability in Wistar rat at 10 mg/kg, po
# Type: ADME, organism-based
# conditions-used: in vivo
property-label: bioavailability
Answer with the number, then the unit.

Request: Report bioavailability, nothing else, for this compound: C[C@@H](CN1CC(C)(C)c2cc(F)ccc21)NC(=O)O[C@@H](CC1CCCCC1)C(=O)N1CCOCC1
Result: 42%

Request: Please report the measured bioavailability for C[C@@H](CN1CC(C)(C)c2cc(F)ccc21)NC(=O)[C@H](CC1CCCCC1)NC(=O)N1CCOCC1
Result: 4%

Request: Give the measured bioavailability for C[C@@H](CN1c2ccc(F)cc2CC1(C)C)NC(=O)O[C@@H](CC1CCCCC1)C(=O)N1CCOCC1
Result: 23%

---

# assay-summary: Half life in Wistar rat at 10 mg/kg, po
# Format: ADME, organism-based
# Parameters: dose 10 mg/kg, route oral
# conditions-used: in vivo
Could you please report measured half-life for the items listed next?

Request: Answer with the recorded half-life for the compound listed here: C[C@@H](CN1c2ccc(F)cc2CC1(C)C)NC(=O)O[C@@H](CC1CCCCC1)C(=O)N1CCOCC1
Result: 62 min

Request: Indicate its recorded half-life; the compound in question is C[C@@H](CN1CC(C)(C)c2cc(F)ccc21)NC(=O)[C@H](CC1CCCCC1)NC(=O)N1CCOCC1
Result: 51 min

Request: Return half-life (reported value) for this compound: C[C@@H](CN1CC(C)(C)c2cc(F)ccc21)NC(=O)O[C@@H](CC1CCCCC1)C(=O)N1CCOCC1
Result: 69 min
